Data origin, for the record: PubChem BioAssay AID1468

Target: Microtubule-associated protein tau (Homo sapiens) (UniProt P10636)
Sequence (P10636 561-689 P618L limits assumed): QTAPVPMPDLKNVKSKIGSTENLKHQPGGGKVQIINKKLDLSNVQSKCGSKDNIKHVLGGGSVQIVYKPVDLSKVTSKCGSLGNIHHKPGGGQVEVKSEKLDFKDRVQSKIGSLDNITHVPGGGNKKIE
Experiment: qHTS for Inhibitors of Tau Fibril Formation, Fluorescence Polarization; also: nearly all actives have a fitted effect of over 55% in size
Conditions: K18 P301L tau heparin fibrillization, Alexa594 FP, 6 h; series mostly up to 57.7 µM
In all, about 280,000 compounds went through this assay and about 1,100 (0.39%) were called active. Roughly 7% stayed inconclusive and do not appear here. Calls follow the shape of the dose curve; as a rule, active = well fitted inhibition curve with a large enough effect; inconclusive = small, poorly fitted or top-dose-only effect, or effect the other way; inactive = flat fitted curve, though single readings scatter. This is one part of a sample in which actives are shown more often than they occur.
Write down one outcome, taken from true (active), false (inactive)

Which outcome was entered for the molecule `O=C(Nc1ccc(Br)cc1)c1ccc(Br)c(S(=O)(=O)NCc2ccccc2)c1` in this test?
true

Which outcome was entered for the molecule `Cc1cc(C)c2sc(NC(=O)c3ccc(S(=O)(=O)N4CCCC4)cc3)nc2c1` in this test?
false

Which outcome was entered for the molecule `Cc1ccccc1CN1CCC(CNC(=O)c2cc3ccc4cccnc4c3[nH]2)CC1` in this test?
false

Which outcome was entered for the molecule `COc1ccc(N(C(=O)c2cccnc2)S(=O)(=O)c2ccc3c(c2)n(C)c(=O)n3C)cc1` in this test?
false

Which outcome was entered for the molecule `COc1cc2c(=O)c(S(=O)(=O)c3ccc(C(C)C)cc3)cn(Cc3ccccc3C)c2cc1OC` in this test?
false

Which outcome was entered for the molecule `COc1ccc(N2CCN(c3nc(-c4ccccc4F)nc4ccccc34)CC2)cc1` in this test?
false

Which outcome was entered for the molecule `O=C(c1cccnc1)N(c1cc2sc(=O)oc2c2ccccc12)S(=O)(=O)c1ccccc1` in this test?
true

----------
Biological target: Microtubule-associated protein tau (Homo sapiens)
Assay: qHTS for Inhibitors of Tau Fibril Formation, Fluorescence Polarization; also: nearly all actives have a fitted effect of over 55% in size
Conditions: K18 P301L tau heparin fibrillization, Alexa594 FP, 6 h; series mostly up to 57.7 µM
About 1,100 (0.39%) of roughly 280,000 compounds were called active. Another 7% or so got no clear call; they are omitted. Calls come from the whole dose curve; as a rule, active = well fitted inhibition curve with a large enough effect; inconclusive = small, poorly fitted or top-dose-only effect, or effect the other way; inactive = flat fitted curve, though single readings scatter. The entries come from a sample that favours actives as a whole.
Write down one outcome, taken from label 1 (active), label 0 (inactive)

Which outcome was entered for the compound `CCOc1ccc(-c2nonc2NC(=O)c2oc3ccc(CC)cc3c2C)cc1` in this test?
label 0

Which outcome was entered for the compound `Cc1ccc(Cn2cc(CCC(=O)NCc3ccc(OC(C)C)cc3)c3ccccc32)cc1` in this test?
label 0

Which outcome was entered for the compound `COc1ccc(-c2csc(-c3c(N)c(C(=O)c4ccc(OC)c(OC)c4)n4ccccc34)n2)cc1` in this test?
label 0

Which outcome was entered for the compound `COc1ccc(-n2c(=O)c3c(c4cc(OC)ccc4n3C)n(Cc3cccc(C)c3)c2=O)cc1` in this test?
label 0

Which outcome was entered for the compound `CCOc1ccc(CNC(=O)c2cc(-c3ccc(Cl)s3)nc3ccccc23)cc1` in this test?
label 0

Which outcome was entered for the compound `Cc1cc(NC(=O)Nc2ccccc2)n(-c2ccccc2)n1` in this test?
label 0

Which outcome was entered for the compound `Cc1ccc(NC(=O)Nc2cc(-c3ccccc3)nn2C)cc1Cl` in this test?
label 1

Which outcome was entered for the compound `Cc1cc(NC(=O)Nc2ccc(Cl)cc2)n(-c2ccccc2)n1` in this test?
label 0

Which outcome was entered for the compound `Oc1ccc2ccccc2c1C=Nc1ccccc1` in this test?
label 0

Which outcome was entered for the compound `O=C(O)/C=C/c1cn(-c2ccccc2)nc1-c1cccs1` in this test?
label 0

Which outcome was entered for the compound `COc1ccccc1-c1nnc(SCC(N)=O)o1` in this test?
label 0

Which outcome was entered for the compound `Cc1cccc(C(=O)N2CCc3cc(CNC(=O)Cc4ccc(F)cc4)ccc32)c1` in this test?
label 0

Which outcome was entered for the compound `N#C/C(=C\c1ccccc1C(F)(F)F)C(=O)Nc1ccccc1F` in this test?
label 0

Which outcome was entered for the compound `O=[N+]([O-])c1ccc(N=Cc2c(O)ccc3ccccc23)cc1` in this test?
label 0

Which outcome was entered for the compound Cc1ccc2sc(N(Cc3cccnc3)C(=O)C3COc4ccccc4O3)nc2c1C (configuration not stated) in this test?
label 0

Which outcome was entered for the compound `COc1ccc(OC)c(NC(=O)Cn2c(=O)n(Cc3ccccc3)c(=O)c3ccccc32)c1` in this test?
label 0

Which outcome was entered for the compound `Cc1ccc(C)c(S(=O)(=O)c2nnn3c2nc(N2CCOCC2)c2sccc23)c1` in this test?
label 0

Which outcome was entered for the compound `Cc1ccc(-c2nn(-c3ccccc3)cc2C(=O)Nc2cccc(S(=O)(=O)N3CCOCC3)c2)cc1` in this test?
label 1

Which outcome was entered for the compound COc1ccc2c(c1OC)C(=O)OC2c1c(O)nc(SC)n(-c2ccccc2)c1=O (configuration not stated) in this test?
label 0

Which outcome was entered for the compound `CCc1nc2cccnc2n1-c1ccc(CC(=O)Nc2c(C)cccc2C)cc1` in this test?
label 0

Which outcome was entered for the compound COc1ccc2c(c1OC)C(=O)OC2Nc1nc(-c2ccccc2)cs1 (configuration not stated) in this test?
label 1

Which outcome was entered for the compound `O=C(CSc1nc(Nc2ccc(F)c(F)c2)c2ccccc2n1)c1ccc(Cl)cc1` in this test?
label 0

Which outcome was entered for the compound `Cc1ccnc(SCC(N)=O)n1` in this test?
label 0

Which outcome was entered for the compound `CSc1ccc(S(=O)(=O)NC2CCCCC2)cc1` in this test?
label 0

Which outcome was entered for the compound `C(=N\N1CCN(c2ccccn2)CC1)/C1=C(N2CCOCC2)C(=C/c2ccccc2)/CC1` in this test?
label 0

Which outcome was entered for the compound Cc1ccc(NC(=O)Nc2sc3nc4n(c(=O)c3c2C)CCC(C)CC4)c(Cl)c1 (configuration not stated) in this test?
label 0

Which outcome was entered for the compound `Fc1ccc(CSc2nc(NCc3ccccc3)c3ccccc3n2)cc1` in this test?
label 0

Which outcome was entered for the compound `Fc1ccc(Nc2nc(SCc3ccccc3Cl)nc3ccccc23)cc1` in this test?
label 1

Which outcome was entered for the compound `N#C/C(=C\C1=C(N2CCOCC2)C(=C\c2ccccc2)/CC1)C(=O)Nc1ccccc1F` in this test?
label 1

Which outcome was entered for the compound `Cc1ccc(C)c(N2CCN(c3ccc4cc(S(=O)(=O)N5CCC(C)CC5)ccc4n3)CC2)c1` in this test?
label 0

Which outcome was entered for the compound `CC(=O)c1cccc(Nc2ccc3cc(S(=O)(=O)N4CCC(C)CC4)ccc3n2)c1` in this test?
label 1

Which outcome was entered for the compound `Cc1ccc(NC(=O)C2CCN(S(=O)(=O)c3cc(-c4noc(C)n4)ccc3C)CC2)c(C)c1` in this test?
label 0

Which outcome was entered for the compound COc1ccc(C2CC(c3ccccc3)=NN2C(=O)CSc2nccc(=O)[nH]2)cc1 (configuration not stated) in this test?
label 0

Which outcome was entered for the compound `Cc1ccc(Cn2c(=O)n(CCCC(=O)NCc3ccccc3Cl)c(=O)c3ccccc32)cc1` in this test?
label 0

Which outcome was entered for the compound COc1ccc(-c2csc(NC3OC(=O)c4ccccc43)n2)cc1 (configuration not stated) in this test?
label 0

Which outcome was entered for the compound `O=C(CSc1nnnn1-c1ccc(O)cc1)c1ccc(F)cc1` in this test?
label 0

Which outcome was entered for the compound `COc1ccccc1CNC(=O)CCn1c(=O)c2ccccc2n(CC(=O)Nc2ccc(Br)cc2F)c1=O` in this test?
label 0

Which outcome was entered for the compound `COc1ccc(CCNC(=O)c2ccc(-n3c(C)cc4c3CCCC4)cc2)cc1OC` in this test?
label 0

Which outcome was entered for the compound `Cc1cccc(NC(=O)CSc2nc3c([nH]c4ccccc43)c(=O)n2-c2cc(C)cc(C)c2)c1` in this test?
label 0

Which outcome was entered for the compound O=C(CSc1nnnn1-c1ccc(O)cc1)N1N=C(c2ccc3ccccc3c2)CC1c1ccccc1 (configuration not stated) in this test?
label 1

Which outcome was entered for the compound `Cc1ccc(Cl)cc1N1CCN(C(=O)CN2C(=O)COc3ccc(S(=O)(=O)N4CCOCC4)cc32)CC1` in this test?
label 0

Which outcome was entered for the compound `COc1ccc(C)cc1NC(=O)COCc1cc(-c2cccs2)on1` in this test?
label 0
